Where do the numbers come from? From patent US20140296146A1.

STUDY_TARGET: T1, h-FXIIa (human, UniProt P00748 20-615)
T1 construct: also called factor XIIa
T1 sequence (looked up): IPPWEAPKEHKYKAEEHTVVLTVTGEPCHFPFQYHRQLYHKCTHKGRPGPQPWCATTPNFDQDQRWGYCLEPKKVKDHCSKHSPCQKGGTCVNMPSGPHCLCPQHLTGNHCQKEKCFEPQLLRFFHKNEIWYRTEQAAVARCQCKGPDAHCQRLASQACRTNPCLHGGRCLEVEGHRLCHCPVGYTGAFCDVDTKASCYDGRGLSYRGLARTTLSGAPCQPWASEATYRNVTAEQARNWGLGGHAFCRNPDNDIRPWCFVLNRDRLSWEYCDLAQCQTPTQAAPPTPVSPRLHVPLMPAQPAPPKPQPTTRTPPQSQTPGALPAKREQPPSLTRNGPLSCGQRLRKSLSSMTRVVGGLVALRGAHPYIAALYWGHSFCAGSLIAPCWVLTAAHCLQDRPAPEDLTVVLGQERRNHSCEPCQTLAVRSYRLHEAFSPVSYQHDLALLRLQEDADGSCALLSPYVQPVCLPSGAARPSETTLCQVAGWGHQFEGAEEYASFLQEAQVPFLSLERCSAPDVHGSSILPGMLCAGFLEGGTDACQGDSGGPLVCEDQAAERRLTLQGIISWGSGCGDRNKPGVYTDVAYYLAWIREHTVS
METHOD: S2302 hydrolysis by h-FXIIa (5.01 nM); inhibitor 30 min 95° C., against -80° C.
Where no end group is shown, it is not given here.

BINDER	UNIT_NAME	Res. Act. (%)
Corn trypsin inhibitor (other, UniProt P01088 29-138, looked up, also called CTI) SAGTSCVPGWAIPHNPLPSCRWYVTSRTCGIGPRLPWPELKRRCCRELADIPAYCRCTALSILMDGAIPPGPDAQLEGRLEDLPGCPREVQRGFAATLVTEAECNLATIS	%	70
RVCPKILMECKKDSDCLAECICLEHGYCG (disulfide (positions not given here), Synthetic congener) [TICA 4]	%	94
HEERVCPRILMKCKKDSDCLAECVCLEHGYCG (Synthetic congener; also called HEE-TICA1) [TICA 3]	%	103
HEERVCPKILMECKKDSDCLAECICLEHGYCG (Synthetic congener; also called HEE-TICA4) [TICA 5]	%	105
